The measured values listed here are drawn from patent US7109243B2.

- measurement.target: Cathepsin S (Homo sapiens, UniProt P25774)
- Sequence (P25774 115-331, species assumed): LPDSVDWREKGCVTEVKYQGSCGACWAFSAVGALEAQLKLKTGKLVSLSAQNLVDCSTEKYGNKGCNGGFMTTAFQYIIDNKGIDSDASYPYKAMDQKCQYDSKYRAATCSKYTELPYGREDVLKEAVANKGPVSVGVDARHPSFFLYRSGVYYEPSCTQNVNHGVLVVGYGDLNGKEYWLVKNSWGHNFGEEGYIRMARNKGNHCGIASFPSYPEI
- experiment.summary: Cathepsin S inhibition assay (fluorogenic peptide substrate)
- Format: biochemical
- cond: Table II, compounds of Formula I; read-out: Ki Cat. S
endpoint: Ki

Below: 3 compounds and their reported Ki.
- compound: "CS(=O)(=O)c1ccc(C(=O)N[C@@H](CC2CCCCC2)C(=O)NCCNc2ccc(OC(F)(F)F)cc2)s1"
  Ki: "< 100 nM"
- compound: "O=C(NCCNc1ccc(F)cc1)[C@H](CC1CCCCC1)NC(=O)C1(c2ccccc2)CC1"
  Ki: "< 100 nM"
- compound: "O=C(N[C@@H](CC1CCCCC1)C(=O)NCCNc1ccc(OC(F)(F)F)cc1)c1ccc(-c2ccccc2C(F)(F)F)o1"
  Ki: "< 100 nM"

**Q:** Please indicate Ki recorded for COc1ccc(NCCNC(=O)[C@H](CC2CCOCC2)NC(=O)c2ccc(-c3cccc(C(F)(F)F)c3)o2)cc1
**A:** < 1000 nM

**Q:** Please indicate Ki recorded for COc1ccc(NCCNC(=O)[C@H](CC2CCCCC2)NC(=O)c2cc(Br)cc(Br)c2)cc1
**A:** < 100 nM

**Q:** Please indicate Ki recorded for C[C@@H](C(=O)N[C@@H](CC1CCCCC1)C(=O)NCCNc1ccc(OC(F)(F)F)cc1)c1ccccc1
**A:** < 100 nM

**Q:** Please indicate Ki recorded for COc1ccc(NCCNC(=O)C(NC(=O)c2cccc(C)c2)C(C)c2ccc([N+](=O)[O-])cc2)cc1 (centres unmarked)
**A:** < 1000 nM

**Q:** Please indicate Ki recorded for COc1ccc(NCCNC(=O)[C@H](Cc2ccc(-c3ccc(N(C)C)cc3)cc2)NC(=O)c2cccc(C)c2)cc1
**A:** < 1000 nM

**Q:** Please indicate Ki recorded for COc1cccc(-c2cccc(C(=O)N[C@@H](CC3CCCCC3)C(=O)NCCNc3ccc(OC(F)(F)F)cc3)c2)c1
**A:** < 100 nM

**Q:** Please indicate Ki recorded for COc1ccc(NCCNC(=O)[C@H](Cc2ccccc2)NC(=O)Nc2ccc(C(C)=O)cc2)cc1
**A:** < 1000 nM

**Q:** Please indicate Ki recorded for COc1ccc(NCCNC(=O)[C@H](Cc2ccccc2)NC(=O)c2cccc(C#N)c2)cc1
**A:** < 1000 nM

**Q:** Please indicate Ki recorded for O=C(N[C@@H](CC1CCCCC1)C(=O)NCCNc1ccc(OC(F)(F)F)cc1)c1ccc(-c2ccccc2)s1
**A:** < 100 nM

**Q:** Please indicate Ki recorded for COc1ccc(NCCNC(=O)[C@H](Cc2ccccc2)NC(=O)Nc2cccc(OC)c2)cc1
**A:** < 10000 nM
